- Target Entity: Jak2 (human Jak2 kinase domain, amino acids 808-1132) (Homo sapiens (Human), UniProt O60674)
- Sequence (O60674 808-1132): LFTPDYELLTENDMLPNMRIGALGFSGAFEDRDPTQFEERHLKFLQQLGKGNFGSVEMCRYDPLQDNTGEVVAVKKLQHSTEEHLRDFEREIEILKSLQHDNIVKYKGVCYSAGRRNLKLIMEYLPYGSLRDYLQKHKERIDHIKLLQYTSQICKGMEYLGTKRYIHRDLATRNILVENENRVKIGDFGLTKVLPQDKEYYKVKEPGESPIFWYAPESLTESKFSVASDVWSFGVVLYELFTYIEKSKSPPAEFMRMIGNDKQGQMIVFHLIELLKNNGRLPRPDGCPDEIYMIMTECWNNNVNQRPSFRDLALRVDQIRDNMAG
- Assay Explanation: Jak2 inhibition assay (Omnia kinase assay)
- Format: biochemical
- Condition Set: read-out: Jak2 Enzyme (% inhibition at 1000 nM), Table 1; 1000 nM test compound
Reported Endpoint: inhibition at 1 µM (%)

O=C(NC1CCOCC1)c1cnn2ccc(N3CCC[C@@H]3c3cncc(F)c3)nc12 [Example 72] = 11.7
COc1ncc(F)cc1[C@H]1CCCN1c1ccn2ncc(C(=O)N[C@H]3CC[C@H](O)C3)c2n1 [Example 154] = 64.4
CC1(C)CC[C@H](c2cc(F)ccc2F)N1c1ccn2ncc(C(=O)NC3CC3)c2n1 [Example 68] = 23
C[C@H](O)[C@H](CO)NC(=O)c1cnn2ccc(N3CCC[C@@H]3c3cc(F)ccc3F)nc12 [Example 175] = 3.8
CC(C)[C@@H](CO)NC(=O)c1cnn2ccc(N3CCC[C@@H]3c3cncc(F)c3)nc12 [Example 121] = 3.7

(I) O=C(NCC(F)(F)F)c1cnn2ccc(N3CCC[C@@H]3c3cncc(F)c3)nc12 [Example 131]
(II) O=C(NOCC1CC1)c1cnn2ccc(N3CCC[C@@H]3c3cc(F)ccc3F)nc12 [Example 66]
Prompt: Which of the two items, I and II , has the greater recorded inhibition at 1 µM? Refer to your chosen entry by its label in the reply.
Completion: II

(I) COCCOc1ccc(F)cc1[C@H]1CCCN1c1ccn2ncc(C(=O)NC3CC3)c2n1 [Example 90]
(II) O=C(NC1CCC[C@@H]1O)c1cnn2ccc(N3CCCC3c3cncc(F)c3)nc12 (some centres unmarked) [Example 120]
Prompt: Which of the two items, I and II , has the greater recorded inhibition at 1 µM? Refer to your chosen entry by its label in the reply.
Completion: I

(a) O=C(NOCCO)c1cnn2ccc(N3CCC[C@@H]3c3cc(F)cnc3Cl)nc12 [Example 225]
(b) Cn1cnc(CNC(=O)c2cnn3ccc(N4CCC[C@@H]4c4cc(F)ccc4F)nc23)c1 [Example 21]
Prompt: Please indicate which has the smaller reported inhibition at 1 µM: a , or b . Refer to your chosen entry by its label in the reply.
Completion: a
(a: 2.7%, b: 5.8%)

(I) CC(NC(=O)c1cnn2ccc(N3CCCC3c3cncc(F)c3)nc12)C1CC1 (centres unmarked) [Example 113]
(II) C[C@H](NC(=O)c1cnn2ccc(N3[C@H](CO)CC[C@@H]3c3cncc(F)c3)nc12)C(F)(F)F [Example 213]
(III) COc1ncc(F)cc1[C@H]1CCCN1c1ccn2ncc(C(=O)N[C@H]3CC[C@H](O)CC3)c2n1 [Example 140]
Prompt: Rank by inhibition at 1 µM (largest to smallest). Note for the reader: the ranking is given by listing the labels in the order requested.
Completion: III, I, II
(III: 90.1%, I: 44.6%, II: 21.9%)

----------
- Target Entity: Jak3 (GST-tagged human Jak3 kinase domain, amino acids 781-1124) (Homo sapiens (Human), UniProt P52333)
- Sequence (P52333 781-1124): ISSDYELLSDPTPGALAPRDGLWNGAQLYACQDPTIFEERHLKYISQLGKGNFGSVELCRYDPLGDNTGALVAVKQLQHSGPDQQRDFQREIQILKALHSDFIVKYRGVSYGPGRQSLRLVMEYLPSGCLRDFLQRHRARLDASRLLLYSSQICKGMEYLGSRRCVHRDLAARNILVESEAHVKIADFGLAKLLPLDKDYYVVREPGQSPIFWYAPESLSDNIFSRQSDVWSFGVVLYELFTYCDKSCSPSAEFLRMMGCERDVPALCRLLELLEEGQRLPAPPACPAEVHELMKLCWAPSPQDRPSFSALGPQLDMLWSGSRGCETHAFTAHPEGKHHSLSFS
- Assay Explanation: Jak3 inhibition assay (Omnia kinase assay)
- Format: biochemical
- Condition Set: read-out: Jak3 (% inhibition at 1000 nM); Table 2; 1000 nM test compound
Reported Endpoint: inhibition at 1 µM (%)

(a) O=C(NC1(C(F)(F)F)CC1)c1cnn2ccc(N3CCC[C@@H]3c3cncc(F)c3)nc12
(b) Cc1ncc(F)cc1[C@H]1CCCN1c1ccn2ncc(C(=O)N[C@H]3CC[C@H](O)CC3)c2n1
Prompt: Please indicate which has the smaller reported inhibition at 1 µM: a , or b . Refer to your chosen entry by its label in the reply.
Completion: b
(b: 2.6%, a: 5.5%)

(1) NC(=O)c1cnn2ccc(N3CCC[C@@H]3c3cc(F)ccc3F)nc12
(2) COc1ncc(F)cc1[C@H]1CCCN1c1ccn2ncc(C(=O)N[C@H]3CC[C@H](O)CC3)c2n1
Prompt: Which of the two items, 1 and 2 , has the greater recorded inhibition at 1 µM? Refer to your chosen entry by its label in the reply.
Completion: 2
